Biological target: T1, human CCR8 (human, UniProt P51685 1-355)
T1 construct: Native CCR8 on human PBMC (CCR8+ CD3+ or CCR8+ CD4+ lymphocytes); also called chemokine (C-C motif) receptor 8
T1 sequence (P51685 whole entry): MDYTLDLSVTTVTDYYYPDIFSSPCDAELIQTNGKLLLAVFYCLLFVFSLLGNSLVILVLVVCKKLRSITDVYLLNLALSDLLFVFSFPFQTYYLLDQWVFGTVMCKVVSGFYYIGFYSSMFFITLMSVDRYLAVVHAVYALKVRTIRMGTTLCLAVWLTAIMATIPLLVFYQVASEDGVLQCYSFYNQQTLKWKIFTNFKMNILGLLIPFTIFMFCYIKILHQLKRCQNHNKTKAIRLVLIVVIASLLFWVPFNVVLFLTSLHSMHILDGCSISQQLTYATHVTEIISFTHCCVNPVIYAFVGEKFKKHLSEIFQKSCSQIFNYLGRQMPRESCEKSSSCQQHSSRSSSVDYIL
Assay: flow blocking, PBMC CCR8+CD3+; competitor PE-AB12
Listing: % Blocking of selected binders
Answer in %, number only, no unit symbol.

Take a look at these entries with their results.
AB6 (antibody, V domains shown, Hybridoma monoclonal; Same VH/VL entries as AB5; also called antibody 6; clone 6) VH: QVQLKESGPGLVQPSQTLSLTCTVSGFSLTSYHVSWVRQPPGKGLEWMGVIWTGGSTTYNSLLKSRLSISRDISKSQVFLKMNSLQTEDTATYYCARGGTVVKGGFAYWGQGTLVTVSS VL: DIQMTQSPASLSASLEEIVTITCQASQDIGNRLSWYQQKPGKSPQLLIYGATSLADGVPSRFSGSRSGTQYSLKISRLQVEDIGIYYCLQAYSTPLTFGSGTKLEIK	-3.13
AB11 (antibody, V domains shown, Hybridoma monoclonal; also called antibody 11; clone 11) VH: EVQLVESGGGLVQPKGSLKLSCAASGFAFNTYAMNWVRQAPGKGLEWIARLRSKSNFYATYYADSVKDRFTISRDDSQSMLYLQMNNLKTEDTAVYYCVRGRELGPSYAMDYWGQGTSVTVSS VL: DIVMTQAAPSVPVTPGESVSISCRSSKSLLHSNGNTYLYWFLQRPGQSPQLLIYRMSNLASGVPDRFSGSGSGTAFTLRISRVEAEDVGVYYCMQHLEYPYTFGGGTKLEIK	48
AB10 (antibody, V domains shown, Hybridoma monoclonal; also called antibody 10; clone 10) VH: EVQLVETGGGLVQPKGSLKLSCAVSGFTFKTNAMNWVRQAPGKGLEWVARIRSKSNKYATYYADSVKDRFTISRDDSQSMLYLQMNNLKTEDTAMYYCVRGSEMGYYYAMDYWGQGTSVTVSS VL: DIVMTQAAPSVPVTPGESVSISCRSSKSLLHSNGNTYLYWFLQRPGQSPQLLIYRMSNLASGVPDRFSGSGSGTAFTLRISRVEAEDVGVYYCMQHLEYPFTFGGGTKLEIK	47.6
AB5 (antibody, V domains shown, Hybridoma monoclonal; Same VH/VL entries as AB6; also called antibody 5; clone 5) VH: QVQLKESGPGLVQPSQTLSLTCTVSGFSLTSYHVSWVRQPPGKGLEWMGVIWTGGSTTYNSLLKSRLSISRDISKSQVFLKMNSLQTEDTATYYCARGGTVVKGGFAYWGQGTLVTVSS VL: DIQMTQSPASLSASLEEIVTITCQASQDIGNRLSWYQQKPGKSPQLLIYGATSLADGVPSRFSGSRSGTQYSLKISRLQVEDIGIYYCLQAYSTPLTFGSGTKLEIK	-11.3
AB13 (antibody, V domains shown, Hybridoma monoclonal; also called antibody 13; clone 13) VH: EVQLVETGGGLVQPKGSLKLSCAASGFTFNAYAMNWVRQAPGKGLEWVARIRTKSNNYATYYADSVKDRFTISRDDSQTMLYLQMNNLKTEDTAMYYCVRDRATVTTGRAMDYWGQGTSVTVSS VL: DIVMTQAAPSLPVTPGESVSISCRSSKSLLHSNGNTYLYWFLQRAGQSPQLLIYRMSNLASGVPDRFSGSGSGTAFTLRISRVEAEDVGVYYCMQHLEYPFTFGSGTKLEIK	21.8
AB8 (antibody, V domains shown, Hybridoma monoclonal; also called antibody 8; clone 8) VH: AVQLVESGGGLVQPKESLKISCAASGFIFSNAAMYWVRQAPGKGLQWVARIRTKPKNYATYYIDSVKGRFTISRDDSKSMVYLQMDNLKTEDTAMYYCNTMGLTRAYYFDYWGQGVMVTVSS VL: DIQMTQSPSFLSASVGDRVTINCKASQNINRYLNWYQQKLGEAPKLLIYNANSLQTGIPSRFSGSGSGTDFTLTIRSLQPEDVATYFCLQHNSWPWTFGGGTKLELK	48.4

Entry AB7 (antibody, V domains shown, Hybridoma monoclonal; also called antibody 7; clone 7) VH: AVQLVESGGGLVQPKESLKISCAASGFTFSYAAMYWVRQTPGKGLEWVARIRTKPNNYATYYADSVKGRFTISRDDSKSMVYLQMDNLKSEDTAMYYCNIMGITRGYYFDYWGQGVMVTVSS VL: DIQMTQSPSFLSASVGDRVTINCKASQNINRYLNWYQQQLGEAPKLLIYNANNLQTGIPSRFSGSRSGTDFTLTISSLQPEDVATYFCLQHNSWPWTFGGGTKLELK ; % Blocking = 49.1

The measurements presented in this section are drawn from patent US20240360228A1.
